assay: yeast display, Sf9 membrane polyspecificity reagent, FACS + sequencing; frameworks hold sequencing errors
Metric name: polyreactivity (PSR sort gate)

- Chain sequence: "QVQLVESGGGLVQAGGSLRLTCAASGRTFTLNAMGWYRQAPGKERELVADIRRRGGSTYYADSVKGRFTISRDNAKNTVYVQMNSRKAADTAVYYCATHGRWYKLPTGWRPYDYWGLGTQVTVSS"
  polyreactivity (PSR sort gate): "high polyreactivity"
- Chain sequence: "QVQLVESGGGLVQAGGSLRLSCAASGRILATYTMGWYRQAPGKERELVATITSGGRTTYADSVKGRFTISRDNAKNTVYLQMNSLKPEDTAVYYCNVANWYYRKYRPLWGRDYYWGQGTQVTVSS"
  polyreactivity (PSR sort gate): "high polyreactivity"
- Chain sequence: "QVQLVESGVGLVQAGGSLRLSCAASGSTFGGYAMVWYRQAPGKESELVAAIYSSGGNTNYADSVKGRFTISRDNAKNTVYLQMNSLIPEDTAVYYCARDTQLPHFYGRVSEYDYWGQGTQVTVSS"
  polyreactivity (PSR sort gate): "low polyreactivity"
- Chain sequence: "QVQLVESGGGLVQAGGSLRLSCAASGFTSLVNAMGWYRQAPGKERELVAAITGGGSTNYADSVKGRFTISRDNAKNTVYLQMNSLKPEDTAVYYCNAVGYYGYPRIPQFYAFAFYYWGQGTQVTVSS"
  polyreactivity (PSR sort gate): "low polyreactivity"

Next, consider the following sequence.
Look up polyreactivity (PSR sort gate) for this sequence: QVQLVESGGGLVQAGGSLRLSCDASGNIFSWNTMGWYRKAPGKEWELVAAITFRVTRTFYADSVKGRFTISRDNAKNTVYFLMNSLNPEDTAVYYCAARYYYSYSLGYDYWGQGTQVTVSS
high polyreactivity

====

experiment: yeast display, Sf9 membrane polyspecificity reagent, FACS + sequencing; frameworks hold sequencing errors

- Chain sequence: "QVQLVESGGGLVQAGGSLRLSCAASGSIFYRNGMGWYRQAPGKERELVAAISGRGGSTNYADSVKGRFTISRDNAKNTVYLQMNSLKPEDTAVYYCNRYGVSNILVRGGYWGQGTQVTVSS"
  polyreactivity (PSR sort gate): "high polyreactivity"
- Chain sequence: "QVQLVESGGGLVQAGGSLRLSCAASGSTFSPYAMGWYIQAPGKERELVAAIRVRVGGNTYYADSVKGRFTISRDNAKNTVYLQMNSLKPEDTAVYYCAAYSRTLYPDRYYWGQGTQVTVSS"
  polyreactivity (PSR sort gate): "high polyreactivity"
- Chain sequence: "QVQLVESGGGLVQAGGSLRLSCAASGRIFQRNAMGWYRQEPRKEREFVAAITKSGGGTYADSVKGRFTISRDNAKNTVYLQMNSLKPEDTAVYFCAADSRGEDYYYWGQGTQVTVSS"
  polyreactivity (PSR sort gate): "high polyreactivity"

====

assay: yeast display, Sf9 membrane polyspecificity reagent, FACS + sequencing; frameworks hold sequencing errors

- Chain sequence: "QVQLVESGGGLVQAGGSLRLSCAASGRIFGGNAMGWYRQAPGKERELVAAISKRGGSTYYADSVKWRFTISRDNAKNTVYLQMNILKPEDTAVYYCAATAYADQGLDYGYWGQGTQVTVSS"
  polyreactivity (PSR sort gate): "high polyreactivity"
- Chain sequence: "QVQLVESGGGLVQAGGSLRLSCAASGSTFTRNAKGWYRQAPGKERELVAAITSSGSRTYYADSVKGRFTISRDNAKNTVYLQMNRLKPEDTAVYYCAGLGDTRYVAMDHWGQGTQVTVSS"
  polyreactivity (PSR sort gate): "high polyreactivity"
- Chain sequence: "QLQLEESGRGLVQAGGSLRLSCAASGSIFYSNTMGWYRQAPGKERELVAAISTSDTSTYYADSVKGRFTISREKAKNTVYLQMNSLKPEDTAVYYCNAVGSIVLYGYWGQGTQVTVSS"
  polyreactivity (PSR sort gate): "low polyreactivity"
- Chain sequence: "QVQLVESGGGLVQAGGSLRLSCAASGLTFGFNAMGWYRQAPGKERELVAVIDSGGSTNYADSVKGRFTISRDNAKNTVYLQMNSLKPEDTAVYYCAADYTGFYPDGSDVDYDYWGQGTQVTVSS"
  polyreactivity (PSR sort gate): "low polyreactivity"
